System: HCT-116 colon
Test: NCI tumour cell line growth inhibition, 48 h
Would you mind telling me the reported GI50 of each entry?

These solved cases illustrate the format of a correct answer.
compound="C=C1C(=O)O[C@@H]2C1CC(=O)C(C)CC/C=C(\\C)CCC[C@H](C)[C@H]2OC(C)=O (stereo partly specified)" recorded_metric=GI50 endpoint_value="1.62 µM"
compound="OCC1OC(n2ccc3c2ncn2ncnc32)C(O)C1O (stereo unspecified)" recorded_metric=GI50 endpoint_value="1.38 µM"
compound=CCOC(=O)Cc1c[nH]c(=S)[nH]c1=O recorded_metric=GI50 endpoint_value="> 100 µM"

Give GI50 for all compounds that follow.
1. CC12CCC(=O)C(O1)C1C(=O)c3cc4ccccc4cc3C(=O)C12 (stereo unspecified)
2. COc1cccc(OC(=O)c2ccccc2Nc2ccnc(C(F)(F)F)c2)c1
3. Fc1ccc(-c2nc3n(c2-c2ccncc2)CCS3)cc1

Reply:
1. 17.7 µM
2. 1.12 µM
3. > 25 µM
